Each recorded value in this set is attributed to the supplement of paper PMC11061612.

Tested on: PA-TU-8988T (Pancreatic Carcinoma)
Assay: combination Emax (second highest fraction inhibited in the dose matrix, 72 h); higher = more inhibition; extreme values may be limits of the assay
metric name: combination Emax

# combination Emax (compound: Cn1cnc2c(F)c(Nc3ccc(Br)cc3Cl)c(C(=O)NOCCO)cc21 [Selumetinib] + C=CCn1c(=O)c2cnc(Nc3ccc(N4CCN(C)CC4)cc3)nc2n1-c1cccc(C(C)(C)O)n1 [AZD1775] (first compound max 10 µM, partner max 1 µM) ) is 0.805

# combination Emax (compound: CN(CCO)CC[C@H](CSc1ccccc1)Nc1ccc(S(=O)(=O)NC(=O)c2ccc(N3CCC([C@@H](O)c4ccccc4-c4ccc(Cl)cc4)CC3)cc2)cc1S(=O)(=O)C(F)(F)F [AZD4320] + Cc1cc2ncnn2cc1Nc1ncc2c(n1)n(C1CCOCC1)c(=O)n2C [AZD7648] (first compound max 1 µM, 7x7, partner max 10 µM) ) is 0.23

# combination Emax (compound: CC1(C)CCC(CN2CCN(c3ccc(C(=O)NS(=O)(=O)c4ccc(NCC5CCOCC5)c([N+](=O)[O-])c4)c(Oc4cnc5[nH]ccc5c4)c3)CC2)=C(c2ccc(Cl)cc2)C1 [Venetoclax] + Cc1cc2ncnn2cc1Nc1ncc2c(n1)n(C1CCOCC1)c(=O)n2C [AZD7648] (first compound max 1 µM, 7x7, partner max 10 µM) ) is 0.238

# combination Emax (compound: COc1nnc2ccc(N3CCC(c4ccc(OCCN5CCN(C)C(=O)[C@H]5C)cc4)CC3)nn12 [AZD5153] + CC1(C)CCC(CN2CCN(c3ccc(C(=O)NS(=O)(=O)c4ccc(NCC5CCOCC5)c([N+](=O)[O-])c4)c(Oc4cnc5[nH]ccc5c4)c3)CC2)=C(c2ccc(Cl)cc2)C1 [Venetoclax] (first compound max 1 µM, 7x7, partner max 1 µM) ) is 0.664

# combination Emax (compound: CC1(C)CCC(CN2CCN(c3ccc(C(=O)NS(=O)(=O)c4ccc(NCC5CCOCC5)c([N+](=O)[O-])c4)c(Oc4cnc5[nH]ccc5c4)c3)CC2)=C(c2ccc(Cl)cc2)C1 [Venetoclax] + Cn1cnc2c(F)c(Nc3ccc(Br)cc3Cl)c(C(=O)NOCCO)cc21 [Selumetinib] (first compound max 1 µM, 7x7, partner max 3 µM) ) is 0.272

---

Tested on: NB1 (Neuroblastoma);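 also: after 72 h of two-drug dosing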
Test: Bliss excess, mean over the matrix (fraction); higher = more synergy
metric name: Bliss excess
In your answer, state the number alone without any accompanying words.

# Bliss excess (compound: Cc1cc2ncnn2cc1Nc1ncc2c(n1)n(C1CCOCC1)c(=O)n2C [AZD7648] + CN(C)CCCOc1ccc(-c2ccc3ncc4c(c3c2)n(C2CCOCC2)c(=O)n4C)cn1 [AZD0156] (first compound max 10 µM, 7x7, partner max 1 µM) ) is 0.0084

# Bliss excess (compound: COc1nnc2ccc(N3CCC(c4ccc(OCCN5CCN(C)C(=O)[C@H]5C)cc4)CC3)nn12 [AZD5153] + CCN(CCO)CCCOc1ccc2c(Nc3cc(CC(=O)Nc4cccc(F)c4)[nH]n3)ncnc2c1 [AZD2811] (first compound max 1 µM, 7x7, partner max 1 µM) ) is -0.0071

---

Would you kindly list combination Emax for each of these compounds?
System: WM35 (Melanoma)
Assay: combination Emax (second highest fraction inhibited in the dose matrix, 72 h); higher = more inhibition; extreme values may be limits of the assay
In your answer, state the number alone without any accompanying words.

Entry NC1(C(=O)N[C@@H](CCO)c2ccc(Cl)cc2)CCN(c2ncnc3[nH]ccc23)CC1 [Capivasertib] + CCN(CCO)CCCOc1ccc2c(Nc3cc(CC(=O)Nc4cccc(F)c4)[nH]n3)ncnc2c1 [AZD2811] (first compound max 10 µM, 7x7, partner max 1 µM) under WM35 (Melanoma) had combination Emax of 0.328

Entry COc1cccc(OCCCN)c1-c1cc(Nc2cnc(C#N)cn2)n[nH]1 [Prexasertib] + O=C(c1cc(Cc2n[nH]c(=O)c3ccccc23)ccc1F)N1CCN(C(=O)C2CC2)CC1 [Olaparib] (first compound max 1 µM, 7x7, partner max 10 µM) under WM35 (Melanoma) had combination Emax of 0.79

Entry Cn1cnc2c(F)c(Nc3ccc(Br)cc3Cl)c(C(=O)NOCCO)cc21 [Selumetinib] + C=CCn1c(=O)c2cnc(Nc3ccc(N4CCN(C)CC4)cc3)nc2n1-c1cccc(C(C)(C)O)n1 [AZD1775] (first compound max 10 µM, partner max 1 µM) under WM35 (Melanoma) had combination Emax of 0.686

Entry CC(=O)c1c(C)c2cnc(Nc3ccc(N4CCNCC4)cn3)nc2n(C2CCCC2)c1=O [Palbociclib] + Cc1c2c(nn1C)CSCc1cc(n(C)n1)CSc1cc(c3ccccc3c1)OCCCc1c(C(=O)O)n(C)c3c-2c(Cl)ccc13 [AZD5991] (first compound max 10 µM, 7x7, partner max 1 µM) under WM35 (Melanoma) had combination Emax of 0.208

Entry CN(CCO)CC[C@H](CSc1ccccc1)Nc1ccc(S(=O)(=O)NC(=O)c2ccc(N3CCC([C@@H](O)c4ccccc4-c4ccc(Cl)cc4)CC3)cc2)cc1S(=O)(=O)C(F)(F)F [AZD4320] + Cc1cc2ncnn2cc1Nc1ncc2c(n1)n(C1CCOCC1)c(=O)n2C [AZD7648] (first compound max 1 µM, 7x7, partner max 10 µM) under WM35 (Melanoma) had combination Emax of 0.16

Entry NC1(C(=O)N[C@@H](CCO)c2ccc(Cl)cc2)CCN(c2ncnc3[nH]ccc23)CC1 [Capivasertib] + C[C@@H]1COCCN1C2=NC(=NC(=C2)C3(CC3)[S@](=N)(=O)C)C4=C5C=CNC5=NC=C4 [AZD6738] (first compound max 10 µM, 7x7, partner max 10 µM) under WM35 (Melanoma) had combination Emax of 0.311

Entry CC1(C)CCC(CN2CCN(c3ccc(C(=O)NS(=O)(=O)c4ccc(NCC5CCOCC5)c([N+](=O)[O-])c4)c(Oc4cnc5[nH]ccc5c4)c3)CC2)=C(c2ccc(Cl)cc2)C1 [Venetoclax] + CN(C)CCCOc1ccc(-c2ccc3ncc4c(c3c2)n(C2CCOCC2)c(=O)n4C)cn1 [AZD0156] (first compound max 1 µM, 7x7, partner max 1 µM) under WM35 (Melanoma) had combination Emax of 0.135

---

Would you kindly list combination Emax for each of these molecules?
System: COR-L88 (Small Cell Lung Carcinoma)
Assay: combination Emax (second highest fraction inhibited in the dose matrix, 72 h); higher = more inhibition; extreme values may be limits of the assay
In your answer, state the number alone without any accompanying words.

# combination Emax (molecule: CC(=O)c1c(C)c2cnc(Nc3ccc(N4CCNCC4)cn3)nc2n(C2CCCC2)c1=O [Palbociclib] + Cc1c2c(nn1C)CSCc1cc(n(C)n1)CSc1cc(c3ccccc3c1)OCCCc1c(C(=O)O)n(C)c3c-2c(Cl)ccc13 [AZD5991] (first compound max 10 µM, 7x7, partner max 1 µM) ) is 0.307

# combination Emax (molecule: C=CCn1c(=O)c2cnc(Nc3ccc(N4CCN(C)CC4)cc3)nc2n1-c1cccc(C(C)(C)O)n1 [AZD1775] + CCc1c2c(nc3ccc(O)cc13)-c1cc3c(c(=O)n1C2)COC(=O)[C@]3(O)CC [SN-38] (first compound max 1 µM, partner max 0.3 µM) ) is 0.671

# combination Emax (molecule: CC1(C)CCC(CN2CCN(c3ccc(C(=O)NS(=O)(=O)c4ccc(NCC5CCOCC5)c([N+](=O)[O-])c4)c(Oc4cnc5[nH]ccc5c4)c3)CC2)=C(c2ccc(Cl)cc2)C1 [Venetoclax] + C[C@@H](Nc1cc(F)cc(F)c1)c1cc(C(=O)N(C)C)cc2c(=O)cc(N3CCOCC3)oc12 [AZD8186] (first compound max 1 µM, 7x7, partner max 3 µM) ) is 0.617

# combination Emax (molecule: CC1(C)CCC(CN2CCN(c3ccc(C(=O)NS(=O)(=O)c4ccc(NCC5CCOCC5)c([N+](=O)[O-])c4)c(Oc4cnc5[nH]ccc5c4)c3)CC2)=C(c2ccc(Cl)cc2)C1 [Venetoclax] + Cc1cc2ncnn2cc1Nc1ncc2c(n1)n(C1CCOCC1)c(=O)n2C [AZD7648] (first compound max 1 µM, 7x7, partner max 10 µM) ) is 0.515

# combination Emax (molecule: CN(CCO)CC[C@H](CSc1ccccc1)Nc1ccc(S(=O)(=O)NC(=O)c2ccc(N3CCC([C@@H](O)c4ccccc4-c4ccc(Cl)cc4)CC3)cc2)cc1S(=O)(=O)C(F)(F)F [AZD4320] + CN(C)CCCOc1ccc(-c2ccc3ncc4c(c3c2)n(C2CCOCC2)c(=O)n4C)cn1 [AZD0156] (first compound max 1 µM, 7x7, partner max 1 µM) ) is 0.957

# combination Emax (molecule: CCN(CCO)CCCOc1ccc2c(Nc3cc(CC(=O)Nc4cccc(F)c4)[nH]n3)ncnc2c1 [AZD2811] + O=C(c1cc(Cc2n[nH]c(=O)c3ccccc23)ccc1F)N1CCN(C(=O)C2CC2)CC1 [Olaparib] (first compound max 1 µM, 7x7, partner max 10 µM) ) is 0.295

# combination Emax (molecule: CN(C)CCCOc1ccc(-c2ccc3ncc4c(c3c2)n(C2CCOCC2)c(=O)n4C)cn1 [AZD0156] + C=CCn1c(=O)c2cnc(Nc3ccc(N4CCN(C)CC4)cc3)nc2n1-c1cccc(C(C)(C)O)n1 [AZD1775] (first compound max 1 µM, partner max 1 µM) ) is 0.622
